target: CAXII (Homo sapiens); test: CAXII esterase activity assay (4-nitrophenol absorbance) in MDA-MB-231 cells; […] in BT-549 cells
Sequence (O43570 25-354): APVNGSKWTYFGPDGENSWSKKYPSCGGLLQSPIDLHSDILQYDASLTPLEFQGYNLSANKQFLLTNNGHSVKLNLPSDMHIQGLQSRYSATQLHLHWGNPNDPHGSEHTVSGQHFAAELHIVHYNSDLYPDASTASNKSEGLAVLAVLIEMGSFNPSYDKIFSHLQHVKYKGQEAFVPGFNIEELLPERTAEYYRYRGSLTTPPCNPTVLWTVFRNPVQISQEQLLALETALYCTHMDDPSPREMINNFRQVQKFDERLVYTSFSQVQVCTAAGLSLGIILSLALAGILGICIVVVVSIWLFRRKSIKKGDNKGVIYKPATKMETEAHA
resultType: IC50 (µM)
Reply numerically in µM, unit not repeated.

q: Entry O=C(/C=C/c1ccc(O)cc1)OC[C@H]1O[C@@H](Oc2c(-c3ccc(O)cc3)oc3cc(O)cc(O)c3c2=O)[C@H](O)[C@@H](O)[C@@H]1O [TS, Tiliroside] has what IC50?
a: 20.9
